Biological target: Cyclin-dependent kinase 4/cyclin D1 (Homo sapiens)
Assay: Inhibitory activity against human Cyclin D1-cyclin-dependent kinase 4 activity
pIC50: −log10 of the molar value.
ENDPOINT LABEL: pIC50

Below: 5 compounds and their reported pIC50.
[[record]]
structure_string = "O=C1NC(=O)c2c1c1c3ccccc3[nH]c1c1c2c2cccc3c2n1CCC3"
target_system = "Cyclin-dependent kinase 4/cyclin D1 (Homo sapiens)"
quantitative_readout = 6.96

[[record]]
structure_string = "O=C1NC(=O)c2c1c1c3ccc(-c4cccnc4)cc3[nH]c1c1c2c2cccc3c2n1CCC3"
target_system = "Cyclin-dependent kinase 4/cyclin D1 (Homo sapiens)"
quantitative_readout = 6.80

[[record]]
structure_string = "O=C1NC(=O)c2c1c1c3ccc(Cl)cc3[nH]c1c1c2c2cccc3c2n1CCC3"
target_system = "Cyclin-dependent kinase 4/cyclin D1 (Homo sapiens)"
quantitative_readout = 6.96

[[record]]
structure_string = "O=C1NC(=O)c2c1c1c3ccc(CN4CCNCC4)cc3[nH]c1c1c2c2cccc3c2n1CCC3"
target_system = "Cyclin-dependent kinase 4/cyclin D1 (Homo sapiens)"
quantitative_readout = 7.19

[[record]]
structure_string = "O=C1NC(=O)c2c1c1c3ccc(CN4CCCNCC4)cc3[nH]c1c1c2c2cccc3c2n1CCC3"
target_system = "Cyclin-dependent kinase 4/cyclin D1 (Homo sapiens)"
quantitative_readout = 7.10


P = O=C1NC(=O)c2c1c1c3ccc(CN4CCSCC4)cc3[nH]c1c1c2c2cccc3c2n1CCC3
Q = O=C1NC(=O)c2c1c1c3ccccc3[nH]c1c1c2c2cccc3c2n1CC3
R = O=C1NC(=O)c2c1c1c3ccc(CN4CCCC4)cc3[nH]c1c1c2c2cccc3c2n1CCC3
[in] Hi! Can you put these in order of pIC50, lowest number first? Put the labels in the requested order and list them out.
[out] Q, P, R
(Q: 6.62, P: 7.05, R: 7.30)

* * *

Below is a list of entries, each paired with its recorded IC50 value.
Molecular target: Cyclin-dependent kinase 4/cyclin D1 (Homo sapiens, UniProt P11802)
Sequence (P11802 whole entry): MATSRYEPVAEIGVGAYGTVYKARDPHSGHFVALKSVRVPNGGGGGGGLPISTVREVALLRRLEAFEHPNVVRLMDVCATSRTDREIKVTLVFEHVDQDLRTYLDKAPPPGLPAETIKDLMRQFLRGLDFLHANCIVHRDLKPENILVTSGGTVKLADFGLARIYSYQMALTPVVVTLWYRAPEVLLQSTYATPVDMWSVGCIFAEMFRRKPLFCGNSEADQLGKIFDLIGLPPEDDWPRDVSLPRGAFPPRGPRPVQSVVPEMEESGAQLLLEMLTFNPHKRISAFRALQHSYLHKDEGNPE
Sequence (P24385 whole entry, further chain): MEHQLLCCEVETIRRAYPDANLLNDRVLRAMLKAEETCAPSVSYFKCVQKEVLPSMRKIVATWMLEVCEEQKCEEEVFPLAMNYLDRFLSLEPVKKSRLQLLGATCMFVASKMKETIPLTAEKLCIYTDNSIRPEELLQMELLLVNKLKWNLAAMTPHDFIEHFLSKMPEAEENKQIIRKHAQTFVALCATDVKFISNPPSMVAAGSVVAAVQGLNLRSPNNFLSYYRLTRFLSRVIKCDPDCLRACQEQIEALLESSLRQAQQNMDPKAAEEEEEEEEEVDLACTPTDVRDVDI
Experiment: Inhibitory activity against human Cyclin D1-cyclin-dependent kinase 4 activity

Below: 5 compounds and their reported IC50.
[[record]]
structure_string = "O=C1NC(=O)c2c1c1c([nH]c3cccc(F)c31)c1c2c2cccc3c2n1CCC3"
endpoint_label = "IC50"
result = "> 2 µM"

[[record]]
structure_string = "COC(=O)c1ccc2[nH]c3c(c4c(c5c6cccc7c6n(c35)CCC7)C(=O)NC4=O)c2c1"
endpoint_label = "IC50"
result = "> 2 µM"

[[record]]
structure_string = "O=C1NC(=O)c2c1c1c3cc(F)ccc3[nH]c1c1c2c2cccc3c2n1CCC3"
endpoint_label = "IC50"
result = "> 2 µM"

[[record]]
structure_string = "O=C1NC(=O)c2c1c1c3ccc(CN4CCC4)cc3[nH]c1c1c2c2cccc3c2n1CCC3"
endpoint_label = "IC50"
result = "0.075 µM"

[[record]]
structure_string = "O=C1NC(=O)c2c1c1c3cc(Br)ccc3[nH]c1c1c2c2cccc3c2n1CCC3"
endpoint_label = "IC50"
result = "> 2 µM"


Proceeding to the next compound to report its IC50.
[in] What does the data say about its IC50? Entry: O=C1NC(=O)c2c1c1c3cc(F)c(F)cc3[nH]c1c1c2c2cccc3c2n1CCC3
[out] > 2 µM

Where these numbers come from: ChEMBL document CHEMBL1146650
